property: melting point

* O=C(/C=C/c1cc(F)ccc1F)c1ccc(S(=O)(=O)NCCCNc2ccnc3cc(Cl)ccc23)cc1 | 219 to 221 °C
* COc1ccc(/C=C/C(=O)c2ccc(S(=O)(=O)NCCCNc3ccnc4cc(Cl)ccc34)cc2)cc1OC | 222 to 224 °C
* Cc1ccc(/C=C/C(=O)c2ccc(S(=O)(=O)NCCNc3ccnc4cc(Cl)ccc34)cc2)cc1 | 184 to 187 °C
* O=C(/C=C/c1c(F)cccc1F)c1ccc(S(=O)(=O)NCCCNc2ccnc3cc(Cl)ccc23)cc1 | 223 to 225 °C
* O=C(/C=C/c1ccc(F)cc1)c1ccc(S(=O)(=O)NCCCNc2ccnc3cc(Cl)ccc23)cc1 | 216 to 218 °C
* COc1ccc(/C=C/C(=O)c2ccc(S(=O)(=O)NCCNc3ccnc4cc(Cl)ccc34)cc2)cc1OC | 223 to 225 °C
